- System: PC-3 prostate
- experimental.protocol: NCI tumour cell line growth inhibition, 48 h
measurement.type: TGI

# compound, target.or.test.system, measurement.type, endpoint.result
measured = [
    ("COC(=O)/C=C(/C(=O)OC)c1cc2ccc3c([nH]c4ccccc43)c(C)c-2c1", "PC-3 prostate", "TGI", "14.2 µM"),
    ("CC1(C)OCC(C2OC(OC(=O)c3ccc([N+](=O)[O-])cc3)C3OC(C)(C)OC23)O1 (stereo unspecified)", "PC-3 prostate", "TGI", "> 100 µM"),
    ("Cc1[nH]c(C(=O)Nc2ccccc2OC2CCNCC2)c(Cl)c1Cl", "PC-3 prostate", "TGI", "5.23 µM"),
    ("Cc1c(/C=N/NC(=S)Nc2ccccc2)c(=O)n(-c2ccccc2)n1C", "PC-3 prostate", "TGI", "> 100 µM"),
    ("O=C(OC[C@H]1C[C@H]2C(=O)CCC[C@H]2O1)c1ccccc1", "PC-3 prostate", "TGI", "> 100 µM"),
    ("O=C(CC(C(=O)c1cccs1)c1cccs1)c1ccccc1Cl (stereo unspecified)", "PC-3 prostate", "TGI", "> 100 µM"),
    ("NCCCCCCCCCCCn1c2c(c3ccccc3c1=O)C(=O)c1ccccc1-2", "PC-3 prostate", "TGI", "7.12 µM"),
    ("C=C1COC(O)(C2OCOC(C3CC(=O)NC(=O)C3)C2O)C1C (stereo unspecified)", "PC-3 prostate", "TGI", "0.0501 µM"),
    ("c1cc2nnc1SCCCSc1ccc(nn1)SCCCSc1ccc(nn1)SCCCS2", "PC-3 prostate", "TGI", "> 100 µM"),
    ("CCOC(=O)C(=[N+]=[N-])C(=O)CN1C(=O)C2CC(C)=C(C)CC2C1O (stereo unspecified)", "PC-3 prostate", "TGI", "> 100 µM"),
    ("CSCC[C@H](NC(=O)[C@H](CC(C)C)NC(=O)[C@@H](Cc1ccccc1)NC(=O)CNC(=O)[C@@H](NC(=O)[C@H](C)NC(=O)[C@H](Cc1c[nH]c2ccccc12)NC(=O)[C@H](CCC(N)=O)NC(=O)[C@H](N)CC(N)=O)C(C)C)C(N)=O", "PC-3 prostate", "TGI", "> 12.5 µM"),
    ("O=S(=O)(c1ccc(Br)cc1)N1CCN(S(=O)(=O)c2ccc(Br)cc2)CC1", "PC-3 prostate", "TGI", "> 100 µM"),
    ("O=C(NNC(=S)Nc1ccc(Br)cc1)c1cc(-c2ccccc2)nc2ccccc12", "PC-3 prostate", "TGI", "46.3 µM"),
    ("O=C(COc1ccc(OCC(=O)NNC2=NC(c3cc(F)c(Cl)cc3Cl)CS2)c(Cl)c1)NNC1=NC(c2cc(F)c(Cl)cc2Cl)CS1 (stereo unspecified)", "PC-3 prostate", "TGI", "> 100 µM"),
    ("Cc1ccc(S(=O)(=O)N2c3ccccc3[C@H]3CCC=C[C@H]32)cc1", "PC-3 prostate", "TGI", "> 100 µM"),
    ("O=C1CCCC(=O)N1n1c(Cc2ccccc2)n[nH]c1=O", "PC-3 prostate", "TGI", "> 100 µM"),
    ("O=C1CCCCC=C1C[N+](=O)[O-]", "PC-3 prostate", "TGI", "> 100 µM"),
    ("COC(=O)C1(C(=O)OC)N=C(C)OC1c1ccccn1 (stereo unspecified)", "PC-3 prostate", "TGI", "> 100 µM"),
    ("CC(C)(C)CNC(=O)NCn1cc(-c2ccccc2)nn1", "PC-3 prostate", "TGI", "> 100 µM"),
    ("CCCCc1ccc(-n2sc3ncc([N+](=O)[O-])cc3c2=O)cc1", "PC-3 prostate", "TGI", "18.7 µM"),
    ("C/C(=N\\NC(=S)N1CCN(C2CCCCCC2)CC1)c1ccccn1", "PC-3 prostate", "TGI", "2.07 µM"),
]
